# Tested on: Listeria monocytogenes
# Procedure Details: Antimicrobial activity against anrB-deficient Listeria monocytogenes EGD-e assessed as growth inhibition after 16 hrs by broth dilution method relative to wild type
# Type: functional
Bridge positions count the residues as written; N and C are the ends. Square brackets hold non-standard residues; d marks the D form. Peptide text beside a SMILES is read from it. * marks the point of attachment. Ileψ(thiazoline)Cys = CC[C@H](C)[C@H](N)C1=N[C@H](C(=O)*)CS1; dOrn = NCCC[C@@H](N)C(=O)O
Reported fold change (FC) values for a set of compounds
The answer should be a number; do not append a unit.

CC[C@H](C)[C@H](N)C1=N[C@H](C(=O)N[C@@H](CC(C)C)C(=O)N[C@H](CCC(=O)O)C(=O)N[C@H](C(=O)N[C@H]2CCCCNC(=O)[C@H](CC(N)=O)NC(=O)[C@@H](CC(=O)O)NC(=O)[C@H](Cc3cnc[nH]3)NC(=O)[C@@H](Cc3ccccc3)NC(=O)[C@H]([C@@H](C)CC)NC(=O)[C@@H](CCCN)NC2=O)[C@@H](C)CC)CS1 [BACITRACIN] ({Ileψ(thiazoline)Cys}-L[dE]IK[dOrn]I[dF]H[dD]N; lactam 4-C) | 8

Continue with the next compound.
Query block: Which measured fold change (FC) value corresponds to CO/N=C(\C(=O)N[C@@H]1C(=O)N2C(C(=O)O)=C(COC(C)=O)CS[C@H]12)c1csc(N)n1 ?
Result block: 2

---

# Test system: Listeria monocytogenes
# Procedure Details: Antimicrobial activity against Listeria monocytogenes EGD-e assessed as growth inhibition after 16 hrs by broth dilution method
# Type: functional
Bridge positions count the residues as written; N and C are the ends. Square brackets hold non-standard residues; d marks the D form. Peptide text beside a SMILES is read from it. * marks the point of attachment. Ileψ(thiazoline)Cys = CC[C@H](C)[C@H](N)C1=N[C@H](C(=O)*)CS1; dOrn = NCCC[C@@H](N)C(=O)O
Decide using MIC alone. Strictly below 3 µg/mL: 1 (yes). Equal to or above 3 µg/mL: 0 (no).

CC[C@H](C)[C@H](N)C1=N[C@H](C(=O)N[C@@H](CC(C)C)C(=O)N[C@H](CCC(=O)O)C(=O)N[C@H](C(=O)N[C@H]2CCCCNC(=O)[C@H](CC(N)=O)NC(=O)[C@@H](CC(=O)O)NC(=O)[C@H](Cc3cnc[nH]3)NC(=O)[C@@H](Cc3ccccc3)NC(=O)[C@H]([C@@H](C)CC)NC(=O)[C@@H](CCCN)NC2=O)[C@@H](C)CC)CS1 [BACITRACIN] ({Ileψ(thiazoline)Cys}-L[dE]IK[dOrn]I[dF]H[dD]N; lactam 4-C) | 0 (no)

Query block: Regarding CC1(C)S[C@@H]2[C@H](NC(=O)[C@H](N)c3ccccc3)C(=O)N2[C@H]1C(=O)O [AMPICILLIN] , kindly confirm whether its MIC is beneath 3 µg/mL.
Result block: 1 (yes)

Query block: Does the reported MIC of the following compound sit strictly below 3 µg/mL? CO/N=C(\C(=O)N[C@@H]1C(=O)N2C(C(=O)O)=C(COC(C)=O)CS[C@H]12)c1csc(N)n1 [CEFOTAXIME]
Result block: 1 (yes)

Query block: Check if MIC falls below 3 µg/mL for CO/N=C(\C(=O)N[C@@H]1C(=O)N2C(C(=O)O)=C(COC(N)=O)CS[C@H]12)c1ccco1 [CEFUROXIME] .
Result block: 1 (yes)

Query block: Does the reported MIC of CC1(C)S[C@@H]2[C@H](NC(=O)Cc3ccccc3)C(=O)N2[C@H]1C(=O)O [PENICILLIN G] stay below 3 µg/mL?
Result block: 1 (yes)
